Cited source: paper PMC8287630

- experiment: Pharmacokinetic study in beagle dogs
- Format: in vivo
- assay_conditions: dog, plasma, oral, 30 mg/kg, read-out: oral absolute bioavailability
reported_metric: bioavailability (%)

>>> result_number("O=C(/C=C/c1ccc(O)c(O)c1)O[C@@H]1C[C@](O)(C(=O)O)C[C@@H](O)[C@H]1O")
5.85
